SYSTEM TESTED: AMPA receptors
ASSAY EXPLANATION: [3H]AMPA binding (displacement of [3H]AMPA, in the presence of KSCN)
EXPERIMENTAL CONTEXT: only high affinity binding sites labelled
QUANTITY KIND: IC50 (µM)

Look over these answered cases.
>>> df
                                  compound   system_tested  quantity_kind   val
0  NC(Cc1c(O)noc1-c1cccs1)C(=O)O (racemic)  AMPA receptors           IC50  0.28
1  NC(Cc1c(O)noc1-c1ccsc1)C(=O)O (racemic)  AMPA receptors           IC50   3.5

I: Nc1c(NCc2c(O)noc2-c2ccccc2)c(=O)c1=O
II: NC(CCCc1c(O)noc1-c1ccccc1)C(=O)O (racemic)
## Input Which has the higher IC50, I or II ? Your answer should be the label attached to the chosen record.
## Output I

* * *

SYSTEM TESTED: AMPA receptors
ASSAY EXPLANATION: [3H]AMPA binding (displacement of [3H]AMPA, in the presence of KSCN)
EXPERIMENTAL CONTEXT: only high affinity binding sites labelled
QUANTITY KIND: IC50 (µM)

In [3]: df
Out[3]:
                                   compound  val
0  NC(C(=O)O)c1c(O)noc1-c1ccccc1 (racemic) [Compound 2a]   43

I: N[C@@H](Cc1c(O)noc1-c1ccccc1)C(=O)O [Compound 14a]
II: Nc1c(NCc2c(O)noc2-c2cccs2)c(=O)c1=O [Compound 5b]
## Input Which has the higher IC50, I or II ? Your answer should be the label attached to the chosen record.
## Output II
(II: 38 µM, I: 5.5 µM)

* * *

System: AMPA
ASSAY EXPLANATION: Cortical wedge model (electrophysiology, rat cortical wedge preparation), AMPA subtype
Type: cell-based
EXPERIMENTAL CONTEXT: receptor subtype AMPA, antagonist
QUANTITY KIND: IC50 (µM)
Give the quantity in µM, number only.

Entry NC(Cc1c(O)noc1-c1cccs1)C(=O)O (single isomer, unassigned; (-)) [Compound 15a] , IC50 reported as 300

* * *

SYSTEM TESTED: NMDA-receptor
ASSAY EXPLANATION: [3H]CPP binding (displacement of [3H]CPP from the transmitter binding site)
QUANTITY KIND: IC50 (µM)

>>> print(df.to_string())
                                   molecule  system_tested  quantity_kind  unit_abbreviation   val
0  NC(CCc1c(O)noc1-c1ccc(F)cc1)C(=O)O (racemic) [Compound 4a]  NMDA-receptor           IC50                 µM  0.76

A: NC(CCCc1c(O)noc1-c1ccccc1)C(=O)O (racemic) [Compound 3a]
B: Nc1c(NCc2c(O)noc2-c2cccs2)c(=O)c1=O [Compound 5b]
## Input Which has the higher IC50, A or B ? Your answer should be the label attached to the chosen record.
## Output A

1: Nc1c(NCc2c(O)noc2-c2ccccc2)c(=O)c1=O [Compound 5a]
2: NC(CCc1c(O)noc1-c1cccs1)C(=O)O (racemic) [Compound 4c]
3: NC(CCc1c(O)noc1-c1ccsc1)C(=O)O (racemic) [Compound 4d]
4: NC(CCc1c(O)noc1-c1ccccc1)C(=O)O (racemic) [Compound 4b]
## Input List these items ordered by IC50, big to small. Please, when replying, give the labels in the order that was requested.
## Output 1, 4, 3, 2
(1: 22 µM, 4: 2.5 µM, 3: 0.7 µM, 2: 0.19 µM)

* * *

SYSTEM TESTED: AMPA
ASSAY EXPLANATION: Cortical wedge model (electrophysiology, rat cortical wedge preparation), AMPA subtype
EXPERIMENTAL CONTEXT: receptor subtype AMPA, starred in IC50 column (*) = Ki value)
Experimental: The Cortical wedge model is a test in which slices of rat brain is examined in vitro in order to quantify the effect of ligands at the Glu-receptors and evaluate the pharmacological profile of the ligands (i.e. agonist/antagonist properties). The test was performed as described by Harrison, N.L. and Simmonds, M.A. Br.J. Pharmacol. 1985, 84, 381-391 as modified according to Wheatley, P.L. Br.J.Pharmacol. 1986, 87, 159P.
QUANTITY KIND: Ki (µM)

>>> print(df.to_string())
                                   compound  quantity_kind  val
0  NC(Cc1c(O)noc1-c1ccc(F)cc1)C(=O)O (single isomer, unassigned; (-)) [Compound 14c]             Ki  337
1  N[C@H](Cc1c(O)noc1-c1ccccc1)C(=O)O [Compound 14b]             Ki  290

* * *

// reported IC50 per item
SYSTEM TESTED: NMDA-receptor
ASSAY EXPLANATION: [3H]CPP binding (displacement of [3H]CPP from the transmitter binding site)

Look over these answered cases.
>>> print(df.to_string())
                                  compound  quantity_kind       val
0  NC(C(=O)O)c1c(O)noc1-c1ccccc1 (racemic)           IC50    7.5 µM
1  NC(Cc1c(O)noc1-c1ccsc1)C(=O)O (racemic)           IC50  > 100 µM

Entry NC(Cc1c(O)noc1-c1cccs1)C(=O)O (racemic) , IC50 reported as > 100 µM
